Target desc: Zcchc11 enzyme (Homo sapiens, UniProt Q5TAX3)
Construct: made in house; host or cells: HEK293 cells (Zcchc11); E. coli Rosetta II (LIN28A)
Assay summary: TUTase assay (Zcchc11 assay, Lin28a-dependent polyuridylation of pre-let-7)
Format: biochemical
Details: Lin28a-dependent Zcchc11 (Z11) TUTase assay; read-out: Potency Lin28a-dep Z11 IC50
pIC50: −log10 of the molar value.
Kindly supply the reported pIC50 values for the records listed here.

Below, each entry is followed by its recorded pIC50 result.
{"Structure string": "CN(C)C1CN(c2ccc(-n3cc(C(=O)O)c(=O)c4cc(Cl)c(N5CCC[C@@H]5COc5ccnn5C)cc43)cn2)C1", "Target desc": "Zcchc11 enzyme (Homo sapiens, UniProt Q5TAX3)", "pIC50": "≥ 6.00"}
{"Structure string": "Cc1cc2c(=O)c(C(=O)O)cn(-c3ccc(N4CC(N(C)C)C4)nc3)c2cc1N1CCC[C@@H]1COc1ncccc1C", "Target desc": "Zcchc11 enzyme (Homo sapiens, UniProt Q5TAX3)", "pIC50": "≥ 6.00"}
{"Structure string": "COc1ccc(F)c(-n2cc(C(=O)O)c(=O)c3cc(F)c(N4CCC[C@@H]4COc4ccccn4)cc32)c1", "Target desc": "Zcchc11 enzyme (Homo sapiens, UniProt Q5TAX3)", "pIC50": "5.00 to 6.00"}
{"Structure string": "N#CCn1cc(C(=O)O)c(=O)c2cc(Cl)c(N3CCC[C@@H]3COc3ncccc3Cl)cc21", "Target desc": "Zcchc11 enzyme (Homo sapiens, UniProt Q5TAX3)", "pIC50": "≥ 6.00"}
{"Structure string": "O=C(O)c1cn(Cc2ccccc2)c2cc(N3CCC[C@@H]3COc3ncccc3Cl)c(Cl)cc2c1=O", "Target desc": "Zcchc11 enzyme (Homo sapiens, UniProt Q5TAX3)", "pIC50": "5.00 to 6.00"}
{"Structure string": "O=C(O)c1cn(C2CCCC2)c2cc(N3CCC[C@@H]3COc3ccccn3)c(F)cc2c1=O", "Target desc": "Zcchc11 enzyme (Homo sapiens, UniProt Q5TAX3)", "pIC50": "5.00 to 6.00"}

State the recorded pIC50 for every item in the following list.
1. NC(=O)Cn1cc(C(=O)O)c(=O)c2cc(F)c(N3CCC[C@@H]3COc3ccccn3)cc21
2. O=C(O)c1cn(-c2ccccc2F)c2cc(N3CCC[C@@H]3COc3ccccn3)c(F)cc2c1=O
3. CN(C)C1CN(c2ccc(-n3cc(C(=O)O)c(=O)c4cc(Cl)c(N5C[C@@H](F)C[C@@H]5COc5ncccc5Cl)cc43)cn2)C1
4. O=C(O)c1cn(-c2nncs2)c2cc(N3CCC[C@@H]3COc3ccccn3)c(F)cc2c1=O
5. COc1ccc(Cl)c(OC[C@H]2C[C@H](NC(C)=O)CN2c2cc3c(cc2Cl)c(=O)c(C(=O)O)cn3-c2ccc(N3CC(N(C)C)C3)nc2)n1
6. Cc1cc(O)ccc1-n1cc(C(=O)O)c(=O)c2cc(F)c(N3CCC[C@@H]3COc3ccccn3)cc21
7. O=C(O)c1cn(-c2ccc(N3CCC3)nc2)c2cc(N3CCC[C@H]3COc3ncccc3Cl)c(Cl)cc2c1=O

["5.00 to 6.00", "5.00 to 6.00", "≥ 6.00", "5.00 to 6.00", "≥ 6.00", "5.00 to 6.00", "≥ 6.00"]

// field: pIC50; key: CN(C)c1ccc(-n2cc(C(=O)O)c(=O)c3cc(Cl)c(N4CCC[C@@H]4COc4ncccc4Cl)cc32)cn1 ; value = ≥ 6.00

---

Target desc: Zcchc11 enzyme (Homo sapiens, UniProt Q5TAX3)
Construct: made in house; host or cells: HEK293 cells (Zcchc11); E. coli Rosetta II (LIN28A)
Assay summary: TUTase assay (Zcchc11 assay, Lin28a-dependent polyuridylation of pre-let-7)
Type: biochemical
Details: Lin28a-dependent Zcchc11 (Z11) TUTase assay; read-out: Potency Lin28a-dep Z11 IC50
pIC50: −log10 of the molar value.
Kindly supply the reported pIC50 values for the records listed here.

Below, each entry is followed by its recorded pIC50 result.
{"Compound": "Nc1ncc(-n2cc(C(=O)O)c(=O)c3cc(Cl)c(N4CCC[C@@H]4COc4ncccc4Cl)cc32)cn1 [Example 555]", "Measured parameter": "pIC50", "Result": "≥ 6.00"}
{"Compound": "Cc1cc2c(=O)c(C(=O)O)cn(-c3ccc(N4CC(N(C)C)C4)nc3)c2cc1N1CCC[C@@H]1COc1ncccc1F [Example 528]", "Measured parameter": "pIC50", "Result": "≥ 6.00"}
{"Compound": "CC(C)(O)c1ccc(-n2cc(C(=O)O)c(=O)c3cc(C#N)c(N4CCC[C@@H]4COc4ncccc4Cl)cc32)cn1 [Example 575]", "Measured parameter": "pIC50", "Result": "≥ 6.00"}

State the recorded pIC50 for every item in the following list.
1. O=C(O)c1cn(-c2ccnnc2)c2cc(N3CCC[C@@H]3COc3ncccc3Cl)c(Cl)cc2c1=O [Example 504]
2. O=C(O)c1cn(-c2cccnn2)c2cc(N3CCC[C@@H]3COc3ncccc3Cl)c(Cl)cc2c1=O [Example 498]
3. COc1ccc(Cl)c(OC[C@H]2CC(C)CN2c2cc3c(cc2Cl)c(=O)c(C(=O)O)cn3-c2ccc(N3CC(N(C)C)C3)nc2)n1 (some centres unmarked) [Example 625]
4. CN(C)CCn1cc(Cn2cc(C(=O)O)c(=O)c3cc(Cl)c(N4CCC[C@@H]4COc4ncccc4Cl)cc32)cn1 [Example 582]

["≥ 6.00", "≥ 6.00", "≥ 6.00", "5.00 to 6.00"]

---

Target desc: Zcchc11 enzyme (Homo sapiens, UniProt Q5TAX3)
Construct: made in house; host or cells: HEK293 cells (Zcchc11); E. coli Rosetta II (LIN28A)
Assay summary: TUTase assay (Zcchc11 assay, Lin28a-dependent polyuridylation of pre-let-7)
Format: biochemical
Details: Lin28a-dependent Zcchc11 (Z11) TUTase activity; read-out: Potency Lin28a-dep Z11 IC50
pIC50: −log10 of the molar value.
Measured parameter: pIC50

Below, each entry is followed by its recorded pIC50 result.
{"Compound": "CC1C[C@H](COc2ncccc2Cl)N(c2cc3c(cc2Cl)c(=O)c(C(=O)O)cn3-c2ccc(N3CC(N(C)C)C3)nc2)C1 (stereo partly shown) [Compound 296]", "pIC50": "≥ 6.00"}
{"Compound": "CN(C)C1CN(c2ccc(-n3cc(C(=O)O)c(=O)c4cc(Cl)c(N5CCC5COc5ccccn5)cc43)cn2)C1 (stereo not shown) [Compound 219]", "pIC50": "5.00 to 6.00"}

State the recorded pIC50 for every item in the following list.
1. CC(C)[C@@H]1COC(=O)N1C[C@H]1CCCN1c1cc2c(cc1Cl)c(=O)c(C(=O)O)cn2C1(C)CC1 [Compound 141]
2. CN(C)C1CN(c2ccc(-n3cc(C(=O)O)c(=O)c4cc(Cl)c(N5CCCC5)cc43)cn2)C1 [Compound 295]
3. COc1ccc(Cl)c(OC[C@H]2CCCN2c2cc3c(cc2Cl)c(=O)c(C(=O)O)cn3-c2ccc(N3CC(N(C)C)C3)nc2)n1 [Compound 299]

1: < 4.30; 2: 5.00 to 6.00; 3: ≥ 6.00

State the recorded pIC50 for every item in the following list.
1. CC(=O)N1Cc2ccc(-n3cc(C(=O)O)c(=O)c4cc(Cl)c(N5CCC[C@@H]5COc5ncccc5Cl)cc43)cc2C1 [Compound 237]
2. O=C(O)c1cn(C2CC(CO)C2)c2cc(N3CCC[C@@H]3COc3ccccn3)c(F)cc2c1=O (stereo partly shown) [Compound 165]

≥ 6.00
4.30 to 5.00

---

Target desc: Zcchc11 enzyme (Homo sapiens)
Construct: made in house; host or cells: HEK293 cells (Zcchc11); E. coli Rosetta II (LIN28A)
Sequence (Q5TAX3 212-1420): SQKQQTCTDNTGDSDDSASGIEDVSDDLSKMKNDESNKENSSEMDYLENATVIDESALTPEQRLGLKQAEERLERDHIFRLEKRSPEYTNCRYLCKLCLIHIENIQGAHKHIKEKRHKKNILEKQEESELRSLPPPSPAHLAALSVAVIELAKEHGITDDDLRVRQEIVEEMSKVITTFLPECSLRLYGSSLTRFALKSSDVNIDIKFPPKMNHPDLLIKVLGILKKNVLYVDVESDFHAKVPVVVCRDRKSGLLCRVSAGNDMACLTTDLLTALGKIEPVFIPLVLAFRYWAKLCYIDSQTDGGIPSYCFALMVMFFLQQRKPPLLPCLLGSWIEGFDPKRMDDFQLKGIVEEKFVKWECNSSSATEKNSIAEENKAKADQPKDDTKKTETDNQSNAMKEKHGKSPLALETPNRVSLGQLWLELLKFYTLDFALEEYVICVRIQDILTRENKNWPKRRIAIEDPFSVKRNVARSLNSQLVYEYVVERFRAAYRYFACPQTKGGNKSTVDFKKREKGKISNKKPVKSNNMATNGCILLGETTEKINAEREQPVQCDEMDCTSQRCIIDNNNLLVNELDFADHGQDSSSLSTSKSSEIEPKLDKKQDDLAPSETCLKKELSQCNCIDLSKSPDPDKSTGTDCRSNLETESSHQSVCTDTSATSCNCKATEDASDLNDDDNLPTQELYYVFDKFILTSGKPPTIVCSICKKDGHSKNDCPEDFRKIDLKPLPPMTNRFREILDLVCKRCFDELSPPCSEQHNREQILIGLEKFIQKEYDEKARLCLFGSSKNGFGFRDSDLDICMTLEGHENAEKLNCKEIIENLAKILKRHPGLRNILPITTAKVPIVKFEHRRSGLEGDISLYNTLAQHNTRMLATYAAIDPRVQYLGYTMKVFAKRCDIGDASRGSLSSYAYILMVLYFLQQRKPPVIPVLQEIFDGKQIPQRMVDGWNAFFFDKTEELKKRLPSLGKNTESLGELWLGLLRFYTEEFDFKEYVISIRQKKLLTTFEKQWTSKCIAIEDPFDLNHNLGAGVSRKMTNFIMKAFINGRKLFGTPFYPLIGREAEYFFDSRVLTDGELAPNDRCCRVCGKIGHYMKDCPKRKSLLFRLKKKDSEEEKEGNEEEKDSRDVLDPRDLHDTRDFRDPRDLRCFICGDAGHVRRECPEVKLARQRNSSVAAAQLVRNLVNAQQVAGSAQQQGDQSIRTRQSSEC
Assay summary: TUTase assay (Zcchc11 assay, Lin28a-dependent polyuridylation of pre-let-7)
Format: biochemical
Details: Lin28a-dependent Zcchc11 (Z11) TUTase activity; read-out: Potency Lin28a-dep Z11 IC50
Measured parameter: IC50

Below, each entry is followed by its recorded IC50 result.
{"Compound": "CN(C)C1CN(c2ccc(-n3cc(C(=O)O)c(=O)c4cc(Cl)c(N5CCC[C@@H]5COc5nc6ncn(C)c6cc5Cl)cc43)cn2)C1", "IC50": "≤ 1000 nM"}
{"Compound": "CN(C)C1CN(c2ccc(-n3cc(C(=O)O)c(=O)c4cc(Cl)c(N5CCC(C)(C)C5COc5ncccc5Cl)cc43)cn2)C1 (stereo not shown)", "IC50": "≤ 1000 nM"}

State the recorded IC50 for every item in the following list.
1. O=C(O)c1cn(-c2ccc(O)cc2F)c2cc(N3CCC[C@@H]3COc3cnccn3)c(F)cc2c1=O
2. COc1ccc(Cl)c(OC[C@H]2C[C@H]3C[C@H]3N2c2cc3c(cc2Cl)c(=O)c(C(=O)O)cn3-c2ccnc(N)c2)n1
3. Cc1cccnc1OC[C@H]1CCCN1c1cc2c(cc1Cl)c(=O)c(C(=O)O)cn2-c1ccc(N)nc1
4. O=C(O)c1cn(C2CC2)c2c(F)c(N3CCC[C@@H]3COc3ccccn3)c(F)cc2c1=O
5. O=C(O)c1cn(-c2cnc3c(n2)COC3)c2cc(N3CCC[C@@H]3COc3ncccc3Cl)c(Cl)cc2c1=O (racemic)

["10000 to 50000 nM", "≤ 1000 nM", "≤ 1000 nM", "1000 to 10000 nM", "≤ 1000 nM"]

All figures here come from patent US12662491B2.
